Kindly supply the reported activity coefficient values for the records listed here.
- TEST: activity coefficient (dimensionless); of the first substance listed, at infinite dilution; xn = mol fraction of the nth substance listed
- CONDITION SET: 343.1 K; 101 kPa; Liquid; Chromatography; x1 = 0
Numbers only.

Each compound below has a recorded value; state its activity coefficient.
1. CCOCC [diethyl ether] + CCCCCC[N+]1(C)CCCC1.O=S(=O)([N-]S(=O)(=O)C(F)(F)F)C(F)(F)F
2. C1COCCO1 [1,4-dioxane] + CCCCCC[N+]1(C)CCCC1.O=S(=O)([N-]S(=O)(=O)C(F)(F)F)C(F)(F)F
3. Cc1ccc(C)cc1 [1,4-dimethylbenzene] + CCCCCC[N+]1(C)CCCC1.O=S(=O)([N-]S(=O)(=O)C(F)(F)F)C(F)(F)F
4. CCCCCCCC [octane] + CCCCCCCC[N+]1(C)CCCC1.O=S(=O)([N-]S(=O)(=O)C(F)(F)F)C(F)(F)F
5. c1ccsc1 [thiophene] + CCCCCC[N+]1(C)CCCC1.O=S(=O)([N-]S(=O)(=O)C(F)(F)F)C(F)(F)F
6. CCC(C)=O [butanone] + CCCCCCCC[N+]1(C)CCCC1.O=S(=O)([N-]S(=O)(=O)C(F)(F)F)C(F)(F)F

Result:
1.76
0.44
1.42
6.54
0.72
0.31

In plain terms, CCc1ccccc1 [ethylbenzene] + CCCCCC[N+]1(C)CCCC1.O=S(=O)([N-]S(=O)(=O)C(F)(F)F)C(F)(F)F has a documented activity coefficient of 1.46

Values from the NIST ThermoML archive (doi:10.1021/je300692s)
